# Test system: male CF-1 mice
# ASSAY_EXPLANATION: Anesthesia in mice (median anesthetic concentration AC50)
# Type: in vivo, mouse (male CF-1)
# ASSAY_CONDITIONS: inhalation, 5 min
PARAMETER: MOUSE AC50 (median anesthetic concentration)

In the examples that follow, each entry is paired with its recorded MOUSE AC50 (median anesthetic concentration).
Endpoint output: MOUSE AC50 (median anesthetic concentration) of FCOC(F)(F)C(F)C(F)(F)F (centres unmarked) . Value? 2.1 VOL. %

Endpoint output: MOUSE AC50 (median anesthetic concentration) of FC(F)OC(C(F)F)C(F)(F)F (centres unmarked) . Value? 0.84 VOL. %

Endpoint output: MOUSE AC50 (median anesthetic concentration) of FCOC(C(F)F)C(F)(F)F (centres unmarked) . Value? 0.84 VOL. %

Endpoint output: MOUSE AC50 (median anesthetic concentration) of `FC(F)OC(C(F)F)C(F)F` . Value? 0.64 VOL. %

Endpoint output: MOUSE AC50 (median anesthetic concentration) of FC(F)OC(F)C(F)(F)C(F)(F)F (centres unmarked) . Value? 4.3 VOL. %

---
Endpoint output: MOUSE AC50 (median anesthetic concentration) of COC(C(F)F)C(F)(F)F (centres unmarked) . Value? 1.5 VOL. %

Endpoint output: MOUSE AC50 (median anesthetic concentration) of COC(F)(F)C(F)C(F)(F)F (centres unmarked) . Value? 3.9 VOL. %

Endpoint output: MOUSE AC50 (median anesthetic concentration) of FCOC(F)(C(F)F)C(F)(F)F (centres unmarked) . Value? 2.5 VOL. %

Endpoint output: MOUSE AC50 (median anesthetic concentration) of `COCC(F)(F)C(F)(F)F` . Value? 11 VOL. %

Endpoint output: MOUSE AC50 (median anesthetic concentration) of `COCC(F)(F)C(F)F` . Value? 2.5 VOL. %

Endpoint output: MOUSE AC50 (median anesthetic concentration) of `COC(C(F)(F)F)C(F)(F)F` . Value? 2.2 VOL. %

Endpoint output: MOUSE AC50 (median anesthetic concentration) of `FC(F)OC(C(F)(F)F)C(F)(F)F` . Value? 2.5 VOL. %

Endpoint output: MOUSE AC50 (median anesthetic concentration) of `COC(C(F)F)C(F)F` . Value? 1.4 VOL. %

Endpoint output: MOUSE AC50 (median anesthetic concentration) of `FCOC(C(F)(F)F)C(F)(F)F` . Value? 1.4 VOL. %

---

# System: male CF-1 mice
# ASSAY_EXPLANATION: Lethality in mice (median lethal concentration LC50)
# Type: in vivo, mouse (male CF-1)
# ASSAY_CONDITIONS: inhalation, 5 min
# reported MOUSE LC50; entries follow
Write it as a number; the unit VOL. % goes unstated.

Tell me reported MOUSE LC50 for FCOC(C(F)F)C(F)(F)F (centres unmarked) , tested with male CF-1 mice. 5.1

Tell me reported MOUSE LC50 for FC(F)OC(C(F)F)C(F)(F)F (centres unmarked) , tested with male CF-1 mice. 4.9

Tell me reported MOUSE LC50 for `FC(F)OC(C(F)(F)F)C(F)(F)F` , tested with male CF-1 mice. 12

Tell me reported MOUSE LC50 for `FC(F)OCC(F)(F)C(F)F` , tested with male CF-1 mice. 3.2

Tell me reported MOUSE LC50 for `COC(F)(F)C(F)(F)C(F)(F)F` , tested with male CF-1 mice. 50

Tell me reported MOUSE LC50 for FCOC(F)(F)C(F)C(F)(F)F (centres unmarked) , tested with male CF-1 mice. 6.4

Tell me reported MOUSE LC50 for COC(C(F)F)C(F)(F)F (centres unmarked) , tested with male CF-1 mice. 6.9

Tell me reported MOUSE LC50 for FCOC(F)(C(F)F)C(F)(F)F (centres unmarked) , tested with male CF-1 mice. 9.0

---
Tell me reported MOUSE LC50 for `FCOC(C(F)(F)F)C(F)(F)F` , tested with male CF-1 mice. 8.5

Tell me reported MOUSE LC50 for `FC(F)OC(C(F)F)C(F)F` , tested with male CF-1 mice. 3.8
